# System: cynomolgus monkey CD98 ECD (cyCD98 ECD)
# Sequence (as listed by the source): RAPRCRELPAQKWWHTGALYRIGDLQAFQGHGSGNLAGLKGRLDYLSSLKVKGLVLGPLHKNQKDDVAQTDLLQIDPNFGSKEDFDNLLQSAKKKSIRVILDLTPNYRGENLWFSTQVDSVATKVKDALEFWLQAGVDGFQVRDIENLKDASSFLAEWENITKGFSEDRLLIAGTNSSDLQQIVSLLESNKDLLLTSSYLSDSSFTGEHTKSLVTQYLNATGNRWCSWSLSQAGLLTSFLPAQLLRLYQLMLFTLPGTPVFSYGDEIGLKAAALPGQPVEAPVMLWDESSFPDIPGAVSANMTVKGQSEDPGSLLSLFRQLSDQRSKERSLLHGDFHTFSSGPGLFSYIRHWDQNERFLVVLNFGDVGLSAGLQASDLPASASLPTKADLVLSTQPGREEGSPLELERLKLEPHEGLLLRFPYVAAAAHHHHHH
# test-protocol: Biacore surface plasmon resonance binding kinetics, anti-Fc capture
# conditions: framework re-engineered mAbs, Table 24
measurement-kind: ka, cynoCD98 ECD (M⁻¹ s⁻¹)
The reply should contain only the number, in M⁻¹ s⁻¹.

molecule	ka, cynoCD98 ECD, M⁻¹ s⁻¹
huAb101: humanized framework engineered anti-CD98 antibody; heavy chain variable SEQ ID NO: 106, light chain variable SEQ ID NO: 107 (antibody, V domains shown) VH: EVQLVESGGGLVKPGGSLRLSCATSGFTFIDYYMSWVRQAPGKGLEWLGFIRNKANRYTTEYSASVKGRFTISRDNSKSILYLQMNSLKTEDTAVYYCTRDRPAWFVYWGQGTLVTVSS VL: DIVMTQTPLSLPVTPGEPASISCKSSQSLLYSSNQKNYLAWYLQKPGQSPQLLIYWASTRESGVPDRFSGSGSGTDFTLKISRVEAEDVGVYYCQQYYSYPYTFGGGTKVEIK	30000
huAb107: humanized framework engineered anti-CD98 antibody; heavy chain variable SEQ ID NO: 114, light chain variable SEQ ID NO: 112 (antibody, V domains shown) VH: EVQLVESGGGLVQPGGSLRLSCAASGFTFSDYTMAWVRQAPGKGLEWVATIIYSGRGTYYRDAVKGRFTISRDNAKNTLYLQMNSLRAEDTAVYYCARQSDDTYYYWGYFDYWGQGTMVTVSS VL: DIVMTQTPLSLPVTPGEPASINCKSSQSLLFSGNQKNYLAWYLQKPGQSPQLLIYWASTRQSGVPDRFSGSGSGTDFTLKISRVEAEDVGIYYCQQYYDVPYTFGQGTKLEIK	33000
huAb103: humanized framework engineered anti-CD98 antibody; heavy chain variable SEQ ID NO: 109, light chain variable SEQ ID NO: 107 (antibody, V domains shown) VH: EVQLVESGGGLVKPGGSLRLSCATSGFTFIDYYMSWVRQAPGKGLEWLGFIRNKAYGYTTEYSASVKGRFTISRDNSKSILYLQMNSLKTEDTAVYYCTRDRPAWFVYWGQGTLVTVSS VL: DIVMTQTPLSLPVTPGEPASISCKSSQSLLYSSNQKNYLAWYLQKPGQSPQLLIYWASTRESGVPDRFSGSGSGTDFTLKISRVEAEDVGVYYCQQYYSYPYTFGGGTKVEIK	31000
huAb109: humanized framework engineered anti-CD98 antibody; heavy chain variable SEQ ID NO: 116, light chain variable SEQ ID NO: 117 (antibody, V domains shown) VH: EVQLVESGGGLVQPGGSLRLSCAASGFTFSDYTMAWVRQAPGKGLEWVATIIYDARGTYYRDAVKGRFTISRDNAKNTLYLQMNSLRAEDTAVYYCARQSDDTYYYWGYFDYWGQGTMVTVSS VL: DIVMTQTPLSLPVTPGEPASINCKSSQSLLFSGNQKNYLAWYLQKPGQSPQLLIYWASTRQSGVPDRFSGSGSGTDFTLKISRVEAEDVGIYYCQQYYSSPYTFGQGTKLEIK	26000

Kindly review the next molecule as well.
**Q:** Look at this molecule and give its reported ka, cynoCD98 ECD. huAb105: humanized framework engineered anti-CD98 antibody; heavy chain variable SEQ ID NO: 111, light chain variable SEQ ID NO: 112 (antibody, V domains shown) VH: EVQLVESGGGLVQPGGSLRLSCAASGFTFSDYTMAWVRQAPGKGLEWVATIIYSGRGTYYRDAVKGRFTISRDNAKNTLYLQMNSLRAEDTAVYYCARQSDHTYYYWGYFDYWGQGTMVTVSS VL: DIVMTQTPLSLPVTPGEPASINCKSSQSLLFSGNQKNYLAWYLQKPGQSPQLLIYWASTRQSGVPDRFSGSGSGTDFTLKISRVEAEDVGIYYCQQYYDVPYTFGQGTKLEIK
**A:** 38000
